Data origin: patent US20100273814A1

Molecular target: alpha2A receptor (Homo sapiens, UniProt P08913)
Construct: expressed in transfected cells; host or cells: NIH-3T3 cells
Sequence (P08913 1-465): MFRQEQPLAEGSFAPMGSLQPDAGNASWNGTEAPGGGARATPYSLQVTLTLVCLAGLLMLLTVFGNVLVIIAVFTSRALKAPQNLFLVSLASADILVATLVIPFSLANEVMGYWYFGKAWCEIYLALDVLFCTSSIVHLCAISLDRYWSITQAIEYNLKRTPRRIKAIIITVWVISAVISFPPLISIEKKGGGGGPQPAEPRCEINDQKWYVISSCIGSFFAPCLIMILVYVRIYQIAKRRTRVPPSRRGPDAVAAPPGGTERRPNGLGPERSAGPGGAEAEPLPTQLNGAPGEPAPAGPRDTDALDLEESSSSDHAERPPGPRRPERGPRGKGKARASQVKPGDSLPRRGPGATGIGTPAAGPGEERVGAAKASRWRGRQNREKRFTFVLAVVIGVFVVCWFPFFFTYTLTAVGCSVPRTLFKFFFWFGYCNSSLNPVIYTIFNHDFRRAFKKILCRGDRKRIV
Assay: Receptor Selection and Amplification Technology (RSAT) assay, alpha2A
Type: cell-based
Settings: RSAT; ratio of maximal effect to that of standard full agonist brimonidine (UK14304); value in brackets
I'd appreciate it if you marked entries True when Alpha 2A intrinsic activity (efficacy) is lower than 0.1 and False when it is not.

API: query returns whether the compound falls strictly under 0.1 in Alpha 2A intrinsic activity (efficacy). Query: Clc1cccc(C(c2cccnc2)c2c[nH]cn2)c1Cl (centres unmarked)
False

API: query returns whether the compound falls strictly under 0.1 in Alpha 2A intrinsic activity (efficacy). Query: Fc1c(C(c2ccccn2)c2c[nH]cn2)cccc1C(F)(F)F (centres unmarked)
True

API: query returns whether the compound falls strictly under 0.1 in Alpha 2A intrinsic activity (efficacy). Query: Clc1cccc(C(c2ccccn2)c2c[nH]cn2)c1Cl (centres unmarked)
False

API: query returns whether the compound falls strictly under 0.1 in Alpha 2A intrinsic activity (efficacy). Query: Fc1ccccc1C(c1cccnc1)c1c[nH]cn1 (centres unmarked)
False

API: query returns whether the compound falls strictly under 0.1 in Alpha 2A intrinsic activity (efficacy). Query: Fc1cccc(C(c2cccnc2)c2c[nH]cn2)c1F (centres unmarked)
True

API: query returns whether the compound falls strictly under 0.1 in Alpha 2A intrinsic activity (efficacy). Query: Fc1cccc(C(c2ccncc2)c2c[nH]cn2)c1F (centres unmarked)
True

API: query returns whether the compound falls strictly under 0.1 in Alpha 2A intrinsic activity (efficacy). Query: Fc1cccc(C(c2ccncc2)c2c[nH]cn2)c1 (centres unmarked)
True

API: query returns whether the compound falls strictly under 0.1 in Alpha 2A intrinsic activity (efficacy). Query: Fc1c(C(c2ccncc2)c2c[nH]cn2)cccc1C(F)(F)F (centres unmarked)
False
